Values were extracted from patent US20260265256A1.

- target.under.test: recombinant poly(ADP-ribose) polymerase 2 (PARP2) (Homo sapiens, UniProt Q9UGN5)
- Sequence (Q9UGN5 whole entry): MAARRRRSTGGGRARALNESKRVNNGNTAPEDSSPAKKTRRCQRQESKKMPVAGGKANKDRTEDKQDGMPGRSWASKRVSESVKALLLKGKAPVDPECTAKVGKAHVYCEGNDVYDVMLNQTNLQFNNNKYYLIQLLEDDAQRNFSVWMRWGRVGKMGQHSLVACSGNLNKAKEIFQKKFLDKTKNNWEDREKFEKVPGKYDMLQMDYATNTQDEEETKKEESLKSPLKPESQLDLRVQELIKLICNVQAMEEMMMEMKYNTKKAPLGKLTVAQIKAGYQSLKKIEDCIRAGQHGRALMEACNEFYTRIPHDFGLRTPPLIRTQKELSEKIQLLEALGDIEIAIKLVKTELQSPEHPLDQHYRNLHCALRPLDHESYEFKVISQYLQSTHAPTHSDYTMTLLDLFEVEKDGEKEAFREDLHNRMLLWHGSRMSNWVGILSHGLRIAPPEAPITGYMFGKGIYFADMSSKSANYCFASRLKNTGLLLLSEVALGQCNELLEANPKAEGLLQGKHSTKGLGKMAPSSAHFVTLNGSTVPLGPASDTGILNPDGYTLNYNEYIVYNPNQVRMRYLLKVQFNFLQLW
- method.description: PARP2 chemiluminescent assay
- Type: biochemical
- run.parameters: PARP2 enzyme activity, chemiluminescence, 40 ng enzyme/well
metric.name: IC50 (nM)

Examples from the recorded data:
CNC(=O)c1ccc(-n2cc3c(n2)CN(Cc2ccc4c([nH]c(=O)c5c(F)cnn54)c2F)C3)c(F)n1 :: 373
CNC(=O)c1ccc(-n2cc3c(c2)CN(Cc2ccc4c([nH]c(=O)c5c(F)cnn54)c2F)C3)cn1 :: 48
CCNC(=O)c1ccc(-n2cc3c(n2)CN(Cc2ccc4c([nH]c(=O)c5occc54)c2F)C3)c(F)n1 :: 403
CCNC(=O)c1ccc(-n2cc3c(n2)CN(Cc2ccc4c([nH]c(=O)c5occc54)c2F)C3)cn1 :: 157
CNC(=O)c1ccc(-c2nc3c([nH]2)CN(Cc2ccc4c([nH]c(=O)c5c(F)cnn54)c2F)C3)cn1 :: 5.18

P: CNC(=O)c1ccc(-n2cc3c(n2)CN(Cc2ccc4c([nH]c(=O)c5c(C(F)(F)F)cnn54)c2F)C3)c(F)n1
Q: CNC(=O)c1ccc(-c2nc3c(s2)CN(Cc2ccc4c([nH]c(=O)c5c(F)cnn54)c2F)C3)cn1
QUERY: Lower value of IC50 belongs to which: P or Q ? Answer = label.
RESULT: P
(P: 64 nM, Q: 118 nM)
